Measured pIC50 values are reported for all entries that follow.
Biological target: Lck SH2 domain (Homo sapiens)
Construct: Lck SH2 domain expressed and purified as a fusion protein with Glutathione-S-transferase; made in house
Sequence (P06239 127-224 limits assumed): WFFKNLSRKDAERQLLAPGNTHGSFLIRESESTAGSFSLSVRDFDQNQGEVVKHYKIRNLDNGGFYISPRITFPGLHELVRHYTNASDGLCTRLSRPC
Experiment: in vitro binding between Lck SH2 domain (GST fusion) and biotinylated phosphotyrosyl peptide
pIC50: −log10 of the molar value.
OUTCOME_MEASURE: pIC50

{"MOLECULE": "O=C(/C=C/c1ccc(O)c(O)c1)OC(Cc1ccc(O)c(O)c1)C(=O)O (centres unmarked) [Rosmarinic acid, rosmarinic acid]", "OUTCOME_MEASURE": "pIC50", "TEST_RESULT": 5.08}
{"MOLECULE": "O=C(/C=C/c1ccc(O)c(O)c1)O[C@@H](Cc1ccc(O)c(O)c1)C(=O)O [(S)-rosmarinic acid]", "OUTCOME_MEASURE": "pIC50", "TEST_RESULT": 4.56}
